Reference for the values: ChEMBL document CHEMBL2169778

# Study System: Signal transducer and activator of transcription 3 (Mus musculus, UniProt P42227)
# Sequence (P42227 whole entry): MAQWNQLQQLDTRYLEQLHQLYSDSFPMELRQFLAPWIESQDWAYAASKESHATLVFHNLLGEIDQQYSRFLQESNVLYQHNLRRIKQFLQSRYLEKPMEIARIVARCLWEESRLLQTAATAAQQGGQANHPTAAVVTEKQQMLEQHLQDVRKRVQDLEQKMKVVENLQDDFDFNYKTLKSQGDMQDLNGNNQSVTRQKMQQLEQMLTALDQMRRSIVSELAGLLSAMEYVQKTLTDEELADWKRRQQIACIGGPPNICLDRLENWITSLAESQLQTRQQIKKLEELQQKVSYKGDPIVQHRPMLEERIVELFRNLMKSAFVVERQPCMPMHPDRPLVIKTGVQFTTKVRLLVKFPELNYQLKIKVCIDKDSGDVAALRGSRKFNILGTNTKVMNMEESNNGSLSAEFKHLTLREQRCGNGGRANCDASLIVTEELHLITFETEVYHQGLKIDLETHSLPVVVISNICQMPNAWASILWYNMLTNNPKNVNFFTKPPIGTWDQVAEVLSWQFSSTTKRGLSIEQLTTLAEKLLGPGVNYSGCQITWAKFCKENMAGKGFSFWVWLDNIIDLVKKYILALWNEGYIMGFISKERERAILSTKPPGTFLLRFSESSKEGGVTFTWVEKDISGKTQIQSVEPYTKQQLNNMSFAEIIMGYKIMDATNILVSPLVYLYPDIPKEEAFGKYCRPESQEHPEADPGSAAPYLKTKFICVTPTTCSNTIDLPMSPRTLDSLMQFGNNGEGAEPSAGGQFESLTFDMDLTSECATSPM
# Run Description: Binding affinity to STAT3 SH2 in v-Src transformed mouse NIH/3T3 cells overexpressing human EGFR
Assay Readout: Kd (µM)
Unit µM implied. Number only.

Give reported Kd value for Cc1ccc(S(=O)(=O)N(C)CC(=O)N(Cc2ccc(C3CCCCC3)cc2)c2ccc(C(=O)O)c(O)c2)cc1
2.74

====

# Run Description: Cytotoxicity against mouse TE71 without constitutively active STAT3 after 24 to 144 hrs by trypan blue-staining based phase contrast microscopy
pIC50: −log10 of the molar value.
Assay Readout: pIC50

Give pIC50 for Cc1ccc(S(=O)(=O)N(C)CC(=O)N(Cc2ccc(C3CCCCC3)cc2)c2ccc(C(=O)O)c(O)c2)cc1
< 3.70
